Measured growth values are reported for all entries that follow.
# System: A498 renal
# Assay: NCI-60 one-dose screen, 48 h (100 = growth as untreated, 0 = no growth, -100 = all killed)
# Condition parameters: 10 µM unless noted
Compounds without any hit were thinned out: in the full panel of roughly 83,000, 20% have a hit.
Parameter measured: growth (%)

- O=C(N=Nc1c(O)[nH]c2ccc([N+](=O)[O-])cc12)c1ccc2nc(-c3ccccc3)[nH]c2c1: 122
- COc1cc2c(c(OC)c1OC)C(=O)CC(c1cccc(NC(=O)c3cc(NC(=O)[C@H](CO)NC(=O)OC(C)(C)C)ccc3Cl)c1)O2 (some centres undefined): 91.5
- CN1CCN(c2ccc(C(=O)/C=C/c3ccc(Br)cc3)cc2)CC1: 96
- COc1cc(C2CC(c3cc(OC)c(OC)c(OC)c3)=NN2C(C)=O)ccc1OCc1ccccc1 (centres undefined): 55.1
- CC(=O)Nc1ccc(-c2nc3cc(-c4ccc(O)cc4)ccc3n2C)cc1: 72.4
- CC(=O)Nc1ccc(-n2cnc3ccc(-c4ccc(O)cc4)cc32)cc1: 92.8
- COc1cc(-c2cc(-c3cccc(OCC(=O)O)c3)[nH]c(=O)c2C#N)cc(OC)c1OC: 101
- N#Cc1c(-c2cccc3ccccc23)cc(-c2cccc(OCC(=O)O)c2)[nH]c1=O: 99.3
- COc1ccc2c(c1)C(=N/N=C(\C)c1ccc(OC)c(S(N)(=O)=O)c1)C(=O)N2: 99.5
